The origin of these recorded values is patent US20220324835A1.

Give fold induction at 0.3 µM for every item shown.
- System: T-cell
- Method description: IL-2 secretion from T-cells co-stimulated with anti-CD3 and anti-CD28 antibody (Biological Example 2)
- Format: cell-based, human
- Assay context: Homo sapiens, T-cell, fold change over baseline; 0.3 μM Cbl-b inhibitor; primary human total T-cells; read-out: IL-2 secretion Anti-CD3/Anti-CD28 stimulation

A selection of reference data follows.
C[C@H](Sc1nncn1C)c1cccc(NC(=O)c2cc(C(F)(F)F)cc(C3CC3)n2)c1 [Compound 69]: < 1
C[C@H](Cc1nncn1C)c1cccc(NC(=O)c2cc(O[C@@H]3CC[C@@H](O)C3)ccn2)c1 (relative stereo) [Compound 205]: 2.51 to 5
C[C@H](Cc1nncn1C)c1cccc(NC(=O)c2cc(C(=O)N3CC(O)C(F)(F)C3)ccn2)c1 (stereo partly drawn) [Compound 243]: < 1

Provide reported fold induction at 0.3 µM for each item, in the same order as listed.
1. C[C@H](Sc1nncn1C)c1cccc(N2Cc3c(ccnc3Cl)C2=O)c1 [Compound 167]
2. C[C@H](Cc1nncn1C)c1cccc(N2Cc3c(cc(C4CC4)cc3C(F)(F)F)C2=O)c1 [Compound 260]

1. 1.01 to 2.5
2. 1.01 to 2.5

Hey, can you go through the list below and give me fold induction at 0.3 µM for every item?
1. C[C@H](Cc1nncn1C)c1cccc(N2Cc3c(ccnc3C3CC3)C2=O)c1 [Compound 257]
2. Cc1ccc(C(=O)Nc2cc([C@H](C)Sc3nncn3C)ccn2)nc1C1CC1 [Compound 113]
3. C[C@H](Cc1nncn1C)c1cc(NCCO)nc(N2Cc3c(cccc3C(F)(F)F)C2=O)c1 [Compound 357]
4. Cn1cnnc1CC1(c2cccc(NC(=O)c3cc(C4CC4)nc(C4CC4)n3)c2)COC1 [Compound 347]

1.01 to 2.5
2.51 to 5
1.01 to 2.5
2.51 to 5
